// data source = paper PMC12136037

- assayed.system: ~100 representative kinases (Homo sapiens)
- Construct: Recombinant protein kinase domains with a concentration of 2 μM
- Sequence (P52564 1-334): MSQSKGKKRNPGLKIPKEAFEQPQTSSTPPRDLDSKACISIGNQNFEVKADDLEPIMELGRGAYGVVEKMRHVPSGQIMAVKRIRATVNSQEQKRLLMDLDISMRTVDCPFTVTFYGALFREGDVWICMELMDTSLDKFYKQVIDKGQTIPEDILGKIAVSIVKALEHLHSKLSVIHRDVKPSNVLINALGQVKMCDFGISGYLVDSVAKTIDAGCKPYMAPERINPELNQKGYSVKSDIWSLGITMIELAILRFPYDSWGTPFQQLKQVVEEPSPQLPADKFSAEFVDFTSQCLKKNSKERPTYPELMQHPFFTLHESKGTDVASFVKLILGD
- assay.details: DSF 100 kinase selectivity screen;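 note: compound tested at 20 µM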
- Type: binding
- protocol.conditions: protein MAP2K6; average of three replicates
readout.name: dTm (K)

Previously resolved entries follow.
[[record]]
compound = "O=C(Nc1cc(F)cc(Br)c1)C1(C(=O)Nc2cccc(-c3c[nH]c4ncnc(N5CCOCC5)c34)c2)CC1 [Compound 27]"
unit_abbrev = "K"
reported_value = 2.66

[[record]]
compound = "Cc1ccc(-n2nc(C(C)(C)C)cc2NC(=O)Nc2cccc(-c3c[nH]c4ncnc(N5CCOCC5)c34)c2)cc1 [Compound 29]"
unit_abbrev = "K"
reported_value = 2.48


1 = O=C(Nc1ccccc1)C1(C(=O)Nc2cccc(-c3c[nH]c4ncnc(N5CCOCC5)c34)c2)CC1 [Compound 12]
2 = COc1cc(C(=O)N2CCOCC2)c(F)cc1Nc1nc(N(C)C)c2c(Cl)c[nH]c2n1 [Compound 36]
I'm curious, which of these has a smaller dTm number: 1 or 2 ? // caller expects the label of the chosen entry
1
(1: 2.08 K, 2: 9.56 K)
